# test-protocol: MultiTox-Fluor Cytotoxicity Assay - LYMP1-002 - Dead Cells (AID 960);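 further: cells exposed to compound for 16 h at 37 °C; nearly all actives have a fitted effect of over 60% in size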
# stated-conditions: LYMP1-002 lymphoblastoid cells, dead-cell protease fluorescence; series mostly up to 46.1 µM
# Description: NIH Chemical Genomics Center [NCGC] NIH Molecular Libraries Screening Centers Network [MLSCN] National Institutes of Environmental Health Sciences [NIEHS] National Toxicology Program [NTP] We have developed a 1536-well cell-based assay for quantitative high throughput screening (qHTS) against a number of cell lines to determine in vitro cytotoxicity of small molecules. […] 8. Detection; dead-cell fluorescence (Ex/Em=485/520); EnVision plate reader […]
Results filed as inconclusive are left out. Calls of active or inactive are those of the source. The call rests on the fitted dose curve; in most records, active means well fitted cell-killing curve with a large enough effect; inconclusive means small, poorly fitted or top-dose-only effect, or effect the other way; inactive means no such curve, though single readings can be large or run the other way.
readout-kind: outcome

line-notation	experimental-result
CCCCCCCCOC(=O)c1ccccc1C(=O)OCCCCCCCC	inactive
O=Cc1ccco1	inactive
O=C(O)C(Cl)(Cl)Cl	inactive
